Provide the recorded Neut IC50 (ug/ml) subtype B for the entries that follow.
Target: RSV F protein of subtype B strain 18537, on virus (respiratory syncytial virus subtype B …, UniProt P13843 26-574)
Sequence (P13843 26-574): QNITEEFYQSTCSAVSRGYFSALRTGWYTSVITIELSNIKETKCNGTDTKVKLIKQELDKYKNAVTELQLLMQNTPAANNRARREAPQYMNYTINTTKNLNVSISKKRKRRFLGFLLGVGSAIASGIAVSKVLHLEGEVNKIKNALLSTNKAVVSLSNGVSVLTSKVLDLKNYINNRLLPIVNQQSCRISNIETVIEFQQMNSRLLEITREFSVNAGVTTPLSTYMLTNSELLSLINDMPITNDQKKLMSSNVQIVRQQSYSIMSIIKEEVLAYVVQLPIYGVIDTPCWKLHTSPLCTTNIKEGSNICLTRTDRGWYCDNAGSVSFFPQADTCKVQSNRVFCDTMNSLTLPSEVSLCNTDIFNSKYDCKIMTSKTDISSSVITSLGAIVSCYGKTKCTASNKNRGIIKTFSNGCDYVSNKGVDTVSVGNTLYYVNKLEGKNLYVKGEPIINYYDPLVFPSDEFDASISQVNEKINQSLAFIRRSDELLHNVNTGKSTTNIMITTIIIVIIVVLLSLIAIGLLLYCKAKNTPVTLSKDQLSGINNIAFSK
Test: cell-based or functional assay

Which value of Neut IC50 (ug/ml) subtype B has been reported for ADI-15588 (antibody, V domains shown, IgG; also called Antibody Number 155) VH: EVQLVESGPGLVKPSETLSLICRVFGGSVRRGDYNWNWIRQPPGKGLEWIGYIDYSGTTKYNPSLKSRVTISEDTSRNQFSLELRSVTAADTAMYYCARDVGSTPYNYYGMDVWGQGTTVTVSS VL: EIVLTQSPGTLSLSPGERATLSCRASQTIKNNYLAWYQQKPGQAPRLLMYGVSSRPTGIPDRFSGSGSGTDFSLTIDRLEPEDFAVYYCQQFGRSPELTFGGGTKVEIK in the records?
0.234 µg/mL

Which value of Neut IC50 (ug/ml) subtype B has been reported for ADI-15577 (antibody, V domains shown, IgG) VH: QVQLVQSGAEVKKPGSSVKVSCKASGGTFGSYAISWVRQAPGQGLEWMGGTIPIFGTADHAQKFQGRVTITADKSTSTAYMELSSLRSEDTAVYYCARGVFRVGCSDTSCLKNYYGTDVWGQGTTVTVSS VL: QSVLIQPASVSGSPGQSITVSCTGSSGDVGAYKYVSWYQQHPGRGPKLIIYDVSARPSGISDRFSGSKSGNTASLTISGLQAEDEADYYCSSYSSSSTLVVFGGGTKVTVL in the records?
> 10 µg/mL

Which value of Neut IC50 (ug/ml) subtype B has been reported for ADI-15602 (antibody, V domains shown, IgG) VH: EVQLLESGGGVVQPGKSLRLSCVASGFTFGDYGMHWVRQAPGKGLEWVAVISDGGSTKYYADSVKGRFTIARDNSKNTLNLQMNSLRAEDTAVYYCAKDLAWIFGLGASYMDVWGQGTLVTVSS VL: DIQLTQSPGTLSLSPGERATLSCRASQTVSSSYLAWYQQKPGQAPRLLIYDASSRATGIPDRFSGSGSGTDFTLTISRLEPEDFAVYYCQQYGSSPFGLTFGGGTKVEIK in the records?
0.015 µg/mL
